- Test system: Nuclear hormone receptor DAF-12 (Heterodera glycines), GAL4 fusion
- runDescription: H. glycines DAF-12 receptor agonists, primary screen, cell-based, luminescence, HEK293, GAL4 fusion, UAS-luciferase (AID 687014);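 also: 0% = DMSO wells and 100% = sodium butyrate wells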
- conditionsUsed: HEK293 GAL4-hgDAF12 UAS-luciferase reporter, agonist luminescence; at 6.8 µM; normalized to butyrate control
Among all 370,000 compounds or so, about 6,800 (1.8%) were called active.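 The calls were made as follows: active = activation above a cutoff set at the mean of all screened compounds plus 3 SD (cut at about 10% in these data); inactive = the rest.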 This excerpt belongs to a sample that is enriched for actives.
Respond using exactly one of the listed classes: active, inactive

Here's what some known entries look like.
CN(C)C(CNC(=O)c1cc2ccccc2o1)c1ccccc1 (centres undefined)	inactive
O=C(CCCOc1ccccc1)NNC(=O)c1ccc(Cl)cc1	inactive
CC(=O)c1ccc(NC(=O)CSC(=S)N2CCCC2)cc1	inactive
CN1CCN(S(=O)(=O)c2ccc(NC(=O)c3ccco3)cc2)CC1	inactive
CCOc1cc(/C=N/O)ccc1OCc1ccccc1F	inactive
C=CCc1c(C)nc2cc(-c3ccccc3)[nH]n2c1=O	active

Request: I would be grateful if you could indicate the recorded call for O=c1[nH]c(CCl)nc2cc(-c3ccc(Cl)cc3)sc12 .
Response: active

Request: I would be grateful if you could indicate the recorded call for CC(C)Cc1cc(C(=O)NCCc2ccccc2)no1 .
Response: active

Request: I would be grateful if you could indicate the recorded call for O=C(CSC(=S)N1CCOCC1)c1ccccc1 .
Response: active

Request: I would be grateful if you could indicate the recorded call for Cc1cccc(N2CCN(C(=O)c3cccc(N4C(=O)C5C6C=CC(C6)C5C4=O)c3)CC2)c1C (centres undefined) .
Response: inactive

Request: I would be grateful if you could indicate the recorded call for Cc1ccc(C(=O)C2CCN(CC(=O)NCCC(C)C)CC2)cc1 .
Response: inactive

Request: I would be grateful if you could indicate the recorded call for CCN1C(=O)N[C@@H]2C[C@H](C(=O)N3CCCC3)[C@H](C)[C@H](c3ccccc3)C[C@@H]21 .
Response: inactive

Request: I would be grateful if you could indicate the recorded call for O=C1CSc2ccc(C(=O)NCc3ccccn3)cc2N1 .
Response: inactive

Request: I would be grateful if you could indicate the recorded call for COc1cc(/C=N/O)ccc1OCc1ccc([N+](=O)[O-])cc1 .
Response: active

Request: I would be grateful if you could indicate the recorded call for CSCCC(NC(=O)c1ccco1)C(=O)OCC(=O)Nc1ncc(Cl)c(C)c1Cl (centres undefined) .
Response: inactive

Request: I would be grateful if you could indicate the recorded call for COc1ccc(SSc2ccc(OC)cc2C(=O)O)c(C(=O)O)c1 .
Response: inactive

Request: I would be grateful if you could indicate the recorded call for O=C(CP(=O)(c1ccccc1)c1ccccc1)N1CCOCC1 .
Response: inactive

Request: I would be grateful if you could indicate the recorded call for Cc1ccc(NC(=O)c2ccco2)cc1 .
Response: active

Request: I would be grateful if you could indicate the recorded call for CCn1c2ccc(F)cc2c2nnc(SCCN3CCOCC3)nc21 .
Response: inactive

Request: I would be grateful if you could indicate the recorded call for O=C(c1cc(C2CCCCN2S(=O)(=O)c2ccccc2)on1)N1CCOCC1 (centres undefined) .
Response: inactive

Request: I would be grateful if you could indicate the recorded call for O=C(COC(=O)CNC(=O)c1ccccc1F)NCC(F)(F)F .
Response: inactive

Request: I would be grateful if you could indicate the recorded call for COc1ccc(C(=O)NCC[N+](C)(C)C)cc1 .
Response: inactive

* * *

The following compounds are listed with their measured activation values.
- Test system: Nuclear hormone receptor DAF-12 (Heterodera glycines), GAL4 fusion
- runDescription: H. glycines DAF-12 receptor agonists, primary screen, cell-based, luminescence, HEK293, GAL4 fusion, UAS-luciferase (AID 687014);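 also: 0% = DMSO wells and 100% = sodium butyrate wells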
- conditionsUsed: HEK293 GAL4-hgDAF12 UAS-luciferase reporter, agonist luminescence; at 6.8 µM; hits give high values; normalized to butyrate control
Among all 370,000 compounds or so, about 6,800 (1.8%) were called active. The list comes from a sample in which actives are over-represented; it also holds close analogues and randomly drawn compounds.
Please respond with the number in % and leave the unit unwritten.

# example entries with known answers
COc1ccc(Nc2ncc(F)c(N3CCOCC3)n2)cc1	18.6
Fc1cnc(N2CCOCC2)nc1NCc1ccccc1	-0.76
O=c1c(-c2ccccc2)coc2cc(O)ccc12	11.4
O=C(CCc1ccccc1)Nc1ncc([N+](=O)[O-])s1	11.2
CC(C)(C)c1cnnn1-c1ccc([N+](=O)[O-])cc1	-1.27
CC(C)(C)OC(=O)NCc1cc(F)ccc1/C=C/S(=O)(=O)NCCc1ccccc1	0.64

Request: Indicate the recorded activation value for this compound: O=C(CCc1ccccc1)Nc1nn[nH]n1
Response: 0.42

Request: Indicate the recorded activation value for this compound: CC(C)=CCc1c(O)c(CC=C(C)C)c2occ(-c3ccc(O)cc3)c(=O)c2c1O
Response: 1.09

Request: Indicate the recorded activation value for this compound: Cc1nn(-c2ccccc2)c2c1C(c1cccc([N+](=O)[O-])c1)N(c1ccccc1)C(=O)N2 (centres undefined)
Response: 2.5

* * *

- System: Nuclear hormone receptor DAF-12 (Heterodera glycines), GAL4 fusion
- runDescription: H. glycines DAF-12 receptor agonists, primary screen, cell-based, luminescence, HEK293, GAL4 fusion, UAS-luciferase (AID 687014);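 also: 0% = DMSO wells and 100% = sodium butyrate wells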
- conditionsUsed: HEK293 GAL4-hgDAF12 UAS-luciferase reporter, agonist luminescence; at 6.8 µM; hits give high values; normalized to butyrate control
About 6,800 (1.8%) of roughly 370,000 compounds were called active. The list comes from a sample in which actives are over-represented; it also holds close analogues and randomly drawn compounds.
reportedProperty: activation

# example entries with known answers
Clc1ccccc1-c1cc(COc2ccc3ccccc3c2)no1	0% (inactive)
COc1ccccc1C(=O)N1O[C@]23C=C[C@]14C[C@@H](O)CC[C@]4(C)C2CC[C@]1(C)[C@@H]([C@H](C)/C=C/[C@H](C)C(C)C)CC[C@H]13 (some centres not stated)	-1.48% (inactive)
CC(NC(=O)C(=O)N/N=C/c1ccc(Cl)cc1)c1ccccc1 (configuration not stated)	-4.35% (inactive)
Cc1ccccc1C(=O)NC(=S)NC1CC1	0.72% (inactive)
Clc1ccc(-c2cc(-c3ccccn3)on2)c(Cl)c1	11.2% (active)
CCOc1ccc(C(=O)Nc2ccc(CN3CCOCC3)cc2)cc1Cl	-0.68% (inactive)

Note: attention shifts to another entry.
Request: For Nuclear hormone receptor DAF-12 (Heterodera glycines), GAL4 fusion, give the measured activation of the entry O=C(Nc1nnc(-c2ccc(Cl)cc2)o1)c1ccccc1Br
Response: 3.84% (inactive)

* * *

- System: Nuclear hormone receptor DAF-12 (Heterodera glycines), GAL4 fusion
- runDescription: H. glycines DAF-12 receptor agonists, primary screen, cell-based, luminescence, HEK293, GAL4 fusion, UAS-luciferase (AID 687014);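 also: 0% = DMSO wells and 100% = sodium butyrate wells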
- conditionsUsed: HEK293 GAL4-hgDAF12 UAS-luciferase reporter, agonist luminescence; at 6.8 µM; hits give high values; normalized to butyrate control
Screen size: about 370,000 compounds; about 6,800 (1.8%) were called active. The sample as a whole holds a higher share of actives than the screen did.
Mark 1 for reported activation of 10% or greater; mark -1 for anything smaller.

Here's what some known entries look like.
Fc1cc(F)c2nc(N3CCOCC3)sc2c1	1
Cn1ncc(Br)c1C(=O)NC1CCCC1	-1
O=C(Nc1ccc(Br)cn1)c1ccc([N+](=O)[O-])cc1Cl	1
COc1ccc(S(=O)(=O)N(C)C)cc1NC(=O)CSc1ncccn1	-1
CCS(=O)(=O)c1ccc2oc(SCC(=O)N3c4ccccc4CC3C)nc2c1 (stereo not given)	-1
O=[N+]([O-])c1ccc2c(c1)Nc1nc3ccccc3nc1N2	1
O=C(NC1CCC1)c1ccc(C#CC2CC2)cn1	1
Cc1ccc2cc(/C=N/Nc3ccc(C(=O)O)cc3)c(Cl)nc2c1	1

Request: Is activation at least 10%? Consider COc1ccnc(NC(=S)N2CCN(c3ncc(C(F)(F)F)cc3Cl)CC2)c1
Response: -1

Request: Is activation at least 10%? Consider COC(=O)[C@H](C(C)C)N1CCc2nnn(Cc3ccc(C)cc3)c2-c2ccccc2S1(=O)=O
Response: -1

* * *

- System: Nuclear hormone receptor DAF-12 (Heterodera glycines), GAL4 fusion
- runDescription: H. glycines DAF-12 receptor agonists, primary screen, cell-based, luminescence, HEK293, GAL4 fusion, UAS-luciferase (AID 687014);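 also: 0% = DMSO wells and 100% = sodium butyrate wells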
- conditionsUsed: HEK293 GAL4-hgDAF12 UAS-luciferase reporter, agonist luminescence; at 6.8 µM; hits give high values; normalized to butyrate control
The whole screen tested about 370,000 compounds, of which about 6,800 (1.8%) were called active. The entries come from a sample that favours actives as a whole.
reportedProperty: activation (%)
Please respond with the number in % and leave the unit unwritten.

# example entries with known answers
CCCOc1ccc(Oc2c(Cl)cnn(Cc3cccc4ccccc34)c2=O)cc1	-0.9
Cc1cc2c(C)nc(N/N=C/c3ccccc3)nc2o1	4.01

Request: Indicate the recorded activation value for this compound: CC(C)C[C@H](NC(=O)CC1CCCC1)C(=O)N1CCC[C@H]1C(=O)NCc1ccccc1
Response: -4.65

Request: Indicate the recorded activation value for this compound: COc1ccc(NC(=S)N2N=CCC2c2ccccc2)cc1 (stereo not given)
Response: 16.5

Request: Indicate the recorded activation value for this compound: O=C(CN1CCCc2ccccc21)NCc1ccc(F)cc1
Response: 1.21

Request: Indicate the recorded activation value for this compound: COc1ccc(/C=C2\N=C3CCCN3C2=O)cc1
Response: 13

Request: Indicate the recorded activation value for this compound: Cc1ccc(OCc2nnc(SC/C=C/c3ccccc3)n2Cc2ccco2)cc1
Response: -2.63

Request: Indicate the recorded activation value for this compound: Cc1cccc(/C(N)=N/OC(=O)c2ccccc2Cl)c1
Response: 22.6

Request: Indicate the recorded activation value for this compound: COC(=O)C1=C(C)N(Cc2ccc(C(F)(F)F)cc2)C(=NCc2ccccc2)NC1c1ccccc1C(F)(F)F (stereo not given)
Response: 1.9

Request: Indicate the recorded activation value for this compound: C/C(=N\OC(=O)c1ccccc1)c1c(C)nc2cc(C)ccn12
Response: 1.13
